target: Hypoxia-inducible factor 1-alpha (Homo sapiens); experiment: Inhibition of hypoxia-induced HIF1alpha transcriptional activity in HEK293 cells incubated for 16 hrs by hypoxia response element-driven luciferase reporter gene assay
Sequence (Q16665 whole entry): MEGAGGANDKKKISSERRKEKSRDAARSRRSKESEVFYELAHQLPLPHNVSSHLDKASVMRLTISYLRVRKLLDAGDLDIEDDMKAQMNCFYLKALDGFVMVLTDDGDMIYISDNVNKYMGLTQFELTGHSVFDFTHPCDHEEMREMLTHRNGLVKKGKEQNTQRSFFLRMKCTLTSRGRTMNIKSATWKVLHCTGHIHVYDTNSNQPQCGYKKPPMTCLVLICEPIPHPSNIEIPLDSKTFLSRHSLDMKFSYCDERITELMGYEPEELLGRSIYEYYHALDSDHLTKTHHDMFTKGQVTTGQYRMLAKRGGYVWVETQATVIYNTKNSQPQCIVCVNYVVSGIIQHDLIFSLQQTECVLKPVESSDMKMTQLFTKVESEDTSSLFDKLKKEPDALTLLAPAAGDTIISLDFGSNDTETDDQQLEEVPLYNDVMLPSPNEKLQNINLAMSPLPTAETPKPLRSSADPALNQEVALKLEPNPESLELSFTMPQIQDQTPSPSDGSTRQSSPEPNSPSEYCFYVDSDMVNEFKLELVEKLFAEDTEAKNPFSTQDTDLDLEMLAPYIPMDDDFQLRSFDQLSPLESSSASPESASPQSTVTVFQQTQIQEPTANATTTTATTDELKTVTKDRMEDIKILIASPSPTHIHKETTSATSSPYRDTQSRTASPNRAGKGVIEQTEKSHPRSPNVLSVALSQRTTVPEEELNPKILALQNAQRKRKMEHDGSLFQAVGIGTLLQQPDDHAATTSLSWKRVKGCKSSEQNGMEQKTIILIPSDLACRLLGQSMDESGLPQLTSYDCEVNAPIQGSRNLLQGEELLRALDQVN
Listing of recorded pIC50 by entry.
// pIC50 here means minus log10 of the molar concentration (mol/L)

A selection of reference data follows.
smiles_record=O=C(Nc1ccccc1)Nc1ccc(NCc2cccc(O)c2)cc1 measured_on="Hypoxia-inducible factor 1-alpha (Homo sapiens)" reading=4.16
smiles_record=COc1ccccc1CNc1ccc(NC(=O)Nc2ccccc2)cc1 measured_on="Hypoxia-inducible factor 1-alpha (Homo sapiens)" reading=4.76
smiles_record=O=C(Nc1ccccc1)Nc1ccc(NCc2cccc(C(=O)O)c2)cc1 measured_on="Hypoxia-inducible factor 1-alpha (Homo sapiens)" reading=4.38
smiles_record=COC(=O)c1cc(CNc2ccc(NC(=O)Nc3ccccc3)cc2)cc(C(=O)OC)c1 measured_on="Hypoxia-inducible factor 1-alpha (Homo sapiens)" reading=4.82
smiles_record=COc1cccc(CNc2ccc(NC(=O)Nc3ccccc3)cc2)c1 measured_on="Hypoxia-inducible factor 1-alpha (Homo sapiens)" reading=4.28

Attention now turns to another entry.
Query: Write down the reported pIC50 of COC(=O)c1ccccc1CNc1ccc(NC(=O)Nc2ccccc2)cc1 , test system: Hypoxia-inducible factor 1-alpha (Homo sapiens).
Result: 4.49
